- Protocol details: physchem
- Condition summary: PAMPA, pH 7.4
Reported values of Papp for individual entries
Record the value in ×10⁻⁶ cm/s, omitting the unit from your answer.

Entry smiles	Unit descriptor	Papp
CNC(=O)c1cnc(Nc2ccc(OC)c(F)c2)cc1N[C@@H](c1ccccc1)[C@H](O)CO	×10⁻⁶ cm/s	6.3

Switching to the query record.
// query Would you kindly share the measured Papp for CNC(=O)c1cnc(Nc2ccc3ncsc3c2)cc1N[C@@H](c1ccccc1)[C@H](O)CO ?
// result 1.9

The measured values listed here are drawn from ChEMBL document CHEMBL4043252.
